Where do the numbers come from? From ChEMBL document CHEMBL1770114.

system-under-test: UniProtKB Q9H3N8
assay-details: Agonist activity at human histamine H4 receptor expressed in human SK-N-MC cells assessed as effect on forskolin-induced cAMP accumulation after 6 hrs relative to histamine
Assay type: functional, cell-based
Can you tell me Alpha max for the items I'm about to list?
Answers are plain numbers.

smiles-entry	Alpha max
CC(C)Nc1cc(N2CCN(C)CC2)cc(N)n1	0.6

For each entry beneath this line, provide reported Alpha max.
1. CC(C)CNc1nc(N)cc(N2CCN(C)CC2)n1
2. CC(C)CNc1cc(N2CCN(C)CC2)cc(N)n1
3. CN1CCN(c2cc(N)nc(NC3CCCC3)n2)CC1
4. CN1CCN(c2cc(N)nc(NC3CCCC3)c2)CC1
5. CN1CCN(c2cc(NC3CCCC3)nc(N)n2)CC1
6. CC(C)Nc1cc(N2CCN(C)CC2)nc(N)n1

[0.71, 0.51, 0.63, 0.73, 0.46, 0.57]

====

Can you tell me Kb for the items I'm about to list?
system-under-test: Histamine H4 receptor (Homo sapiens, UniProt Q9H3N8)
Sequence (Q9H3N8 whole entry): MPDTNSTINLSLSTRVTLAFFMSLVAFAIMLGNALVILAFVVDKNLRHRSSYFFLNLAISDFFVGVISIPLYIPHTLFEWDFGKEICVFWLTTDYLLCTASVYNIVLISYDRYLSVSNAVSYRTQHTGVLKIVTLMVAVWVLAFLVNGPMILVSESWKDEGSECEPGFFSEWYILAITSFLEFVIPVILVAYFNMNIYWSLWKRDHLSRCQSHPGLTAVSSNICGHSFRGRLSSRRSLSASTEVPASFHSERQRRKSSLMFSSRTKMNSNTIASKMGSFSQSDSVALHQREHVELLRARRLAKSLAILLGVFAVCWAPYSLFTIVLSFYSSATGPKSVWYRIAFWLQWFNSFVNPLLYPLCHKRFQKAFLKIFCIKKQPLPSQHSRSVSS
assay-details: Antagonist activity at human histamine H4 receptor expressed in human SK-N-MC cells assessed as inhibition of forskolin-stimulated cAMP accumulation after 6 hrs
Type: functional, cell-based
condition-label: read-out: pA2 (converted)
Give bare numbers, in nM.

smiles-entry	system-under-test	Kb (nM)
CN1CCN(c2cc(N)nc(N3CCCC3)c2)CC1	Histamine H4 receptor (Homo sapiens, UniProt Q9H3N8)	20

For each entry beneath this line, provide reported Kb.
1. CN[C@@H]1CCN(c2cc(N)nc(NC3CCCC3)n2)C1
2. CC(C)CNc1cc(N2CCN(C)CC2)nc(N)n1

1. 12.6
2. 1.26

For each entry beneath this line, provide reported Kb.
1. CN[C@@H]1CCN(c2cc(N)nc(NC(C)C)c2)C1
2. CN1CCN(c2cc(N3CCCC3)nc(N)n2)CC1
3. CN[C@@H]1CCN(c2cc(N)nc(NCC(C)C)n2)C1
4. CN[C@@H]1CCN(c2cc(NC(C)C)nc(N)n2)C1
5. CN[C@@H]1CCN(c2cc(N)nc(NC(C)C)n2)C1
6. CN[C@@H]1CCN(c2cc(N)nc(NCC(C)C)c2)C1
7. CN[C@@H]1CCN(c2cc(N3CCCC3)nc(N)n2)C1

[1.58, 2, 1.58, 10, 12.6, 1.58, 7.94]

For each entry beneath this line, provide reported Kb.
1. CN[C@@H]1CCN(c2cc(NC3CCCC3)nc(N)n2)C1
2. CN[C@@H]1CCN(c2cc(N)nc(N3CCCC3)c2)C1

1. 0.398
2. 15.8

====

Can you tell me EC50 for the items I'm about to list?
system-under-test: UniProtKB Q9H3N8
assay-details: Agonist activity at human histamine H4 receptor expressed in human SK-N-MC cells assessed as effect on forskolin-induced cAMP accumulation after 6 hrs
Numbers only, in nM.

Guide cases for EC50, answers given:
smiles-entry	EC50 [nM]
CC(C)CNc1cc(N2CCN(C)CC2)cc(N)n1	50
CN1CCN(c2cc(NC3CCCC3)nc(N)n2)CC1	101
CC(C)Nc1cc(N2CCN(C)CC2)cc(N)n1	533
CN1CCN(c2cc(N)nc(NC3CCCC3)n2)CC1	16

Give EC50 for `CN1CCN(c2cc(N)nc(NC3CCCC3)c2)CC1`
11
